Assay: MRT in Wistar rat at 2 mg/kg, iv
Format: ADME, organism-based
Settings: in vivo
Give measured MRT for each item. Keep answers brief.
Numbers only, in h.

[[record]]
smiles_string = "CCc1ccc([C@@H]2c3[nH]c4ccccc4c(=O)c3CN2c2ncc(-c3ccccn3)cn2)s1"
unit_info = "h"
recorded_value = 2.9


In the following, a different molecule is considered.
Exercise: // Input: CCc1ccc([C@@H]2c3[nH]c4ccccc4c(=O)c3CN2c2ncc(-c3ccccn3)cn2)o1 . Output its MRT only.
Solution: 3.1

---

Species: Homo sapiens
Assay: Selectivity ratio of IC50 for N-terminal GST-tagged full length recombinant human PDE1A to IC50 for N-terminal GST-tagged full length recombinant human PDE5A1 catalytic domain
Measurement Type: Ratio IC50

[[record]]
compound = "CCc1ccc(C2c3[nH]c4ccccc4c(=O)c3CN2c2ncc(-c3ccccn3)cn2)s1 (racemic)"
recorded_value = "> 10000"

[[record]]
compound = "CCc1ccc(C2c3[nH]c4ccccc4c(=O)c3CN2c2ncccn2)o1 (stereo not drawn)"
recorded_value = "> 10000"


In the following, a different compound is considered.
Exercise: // Input: CCc1ccc([C@H]2c3[nH]c4ccccc4c(=O)c3CN2c2ncc(-c3ccccn3)cn2)s1 . Output its Ratio IC50 only.
Solution: > 10000
